Reported inhibition at 1 µM is given for each of the following compounds.
experimental_system: Aurora-A kinase (Homo sapiens, UniProt O14965)
Construct: purchased Millipore (KinaseProfiler service) and/or Reaction Biology Corp. (Kinase HotSpot service)
Sequence (O14965 whole entry): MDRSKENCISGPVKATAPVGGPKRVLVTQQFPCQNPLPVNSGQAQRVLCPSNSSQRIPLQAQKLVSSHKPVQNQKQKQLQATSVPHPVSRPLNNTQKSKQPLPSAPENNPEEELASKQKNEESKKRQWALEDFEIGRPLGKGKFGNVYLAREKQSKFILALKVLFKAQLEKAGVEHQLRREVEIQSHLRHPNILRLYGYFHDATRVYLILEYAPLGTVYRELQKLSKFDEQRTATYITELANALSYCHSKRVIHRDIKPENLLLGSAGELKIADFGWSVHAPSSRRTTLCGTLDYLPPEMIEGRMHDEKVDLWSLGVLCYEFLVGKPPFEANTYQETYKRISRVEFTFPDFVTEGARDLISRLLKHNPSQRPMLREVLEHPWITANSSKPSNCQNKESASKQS
test_summary: Aurora-A kinase assay (KinaseProfiler / Kinase HotSpot)
Type: biochemical
stated_conditions: compound at 1 μM; read-out: % Inhibition @1 μM Auroro-A
Experimental: This example illustrated c-Src kinase, Aurora-A kinase, Flt3 kinase, Ret kinase and TrkA Kinase Assays of selected Compounds from this invention (referred to Daniele Fancelli et al, J. Med. Chem., 2006, 49 (24), pp 7247-7251). […] Also Kinase Hotspot ^SM kinase assay was used to test the compounds for IC50 or % inhibitions (Reaction Biology Corp.). Inhibitor IC50 values were determined by titration of compound at the optimal kinase concentration (Kinase EC50).

| given_smiles | experimental_system | inhibition at 1 µM |
| --- | --- | --- |
| CCNC(=O)Nc1ccc(Nc2nc(CC)nc(Nc3cc(C)[nH]n3)n2)cc1 | Aurora-A kinase (Homo sapiens, UniProt O14965) | < 50% |
| CCc1nc(Nc2ccc(NC(=O)Nc3ccc(C(F)(F)F)cc3)cc2)nc(Nc2cc(C)[nH]n2)n1 | Aurora-A kinase (Homo sapiens, UniProt O14965) | > 90% |
| CCc1nc(Nc2ccc(NC(=O)Nc3ccccc3)cc2)nc(Nc2ncc(C)s2)n1 | Aurora-A kinase (Homo sapiens, UniProt O14965) | < 50% |
| CCc1nc(Nc2ccc(NC(=O)NCc3ccccc3)cc2)nc(Nc2cc(C)[nH]n2)n1 | Aurora-A kinase (Homo sapiens, UniProt O14965) | 50 to 90% |
| Cc1cnc(Nc2nc(Sc3ccc(NC(=O)Nc4ccccc4)cc3)nc(N3CCN(C)CC3)n2)s1 | Aurora-A kinase (Homo sapiens, UniProt O14965) | > 90% |
| CCc1nc(Nc2ccc(NC(=O)NC(C)C)cc2)nc(Nc2cc(C)[nH]n2)n1 | Aurora-A kinase (Homo sapiens, UniProt O14965) | < 50% |
| CCc1nc(Nc2ccc(NC(=O)Nc3ccc(OC)cc3)cc2)nc(Nc2cc(C)[nH]n2)n1 | Aurora-A kinase (Homo sapiens, UniProt O14965) | 50 to 90% |

Query compound follows.
Fill in the blank: the reported inhibition at 1 µM of `Cc1cnc(Nc2nc(Sc3cccc(N)c3)nc(N3CCN(C)CC3)n2)s1` is ____.
50 to 90%
